Recorded measurements of 5+ nucleoli phenotype percent effect, one per entry
- System: MCF10A
- TEST PROTOCOL: 5+ nucleoli phenotype percent effect (relative to siNT 0% and siKIF11 100%); higher = more cells with five or more nucleoli
- EXPERIMENTAL CONTEXT: 20 nM; 72 h
Enter your answer as a number in %; do not include the unit.

Solved cases below.
| RECORD SEQUENCE | 5+ nucleoli phenotype percent effect (%) |
| --- | --- |
| GGCAGGUUCUCACCCUCUCUAGG [hsa-miR-657] | 15.8 |
| UGCUGGCUCAUUUCAUAUGUGU [hsa-miR-5580-5p] | -18.4 |
| AAAGGAGGAAAUAGGCAGGCCA [hsa-miR-3173-3p] | -35.7 |
| UCAGUGCAUCACAGAACUUUGU [hsa-miR-148b-3p] | 68.9 |

What value of measured 5+ nucleoli phenotype percent effect is listed for AUUGUCCUUGCUGUUUGGAGAU [hsa-miR-2355-3p] ?
-3.53

What value of measured 5+ nucleoli phenotype percent effect is listed for CCCUUCCCUCACUCUUCUCUCAG [hsa-miR-6734-3p] ?
13.3

What value of measured 5+ nucleoli phenotype percent effect is listed for AAUCAUACAGGGACAUCCAGUU [hsa-miR-487a] ?
-7.13

What value of measured 5+ nucleoli phenotype percent effect is listed for UCCAGUGCCCUCCUCUCC [hsa-miR-1825] ?
-2.13

What value of measured 5+ nucleoli phenotype percent effect is listed for CAAAGACUGCAAUUACUUUUGCG [hsa-miR-548u] ?
43.4

---

- Tested on: MCF10A
- TEST PROTOCOL: 5+ nucleoli phenotype percent effect (relative to siNT 0% and siKIF11 100%); higher = more cells with five or more nucleoli
- EXPERIMENTAL CONTEXT: 20 nM; 72 h
Recorded measurements of 5+ nucleoli phenotype percent effect, one per entry

Solved cases below.
| RECORD SEQUENCE | 5+ nucleoli phenotype percent effect |
| --- | --- |
| AAAAGUAAUUGCGGAUUUUGCC [hsa-miR-548i] | 20.3% |
| CAAAUGGACAGGAUAACACCU [hsa-miR-4694-3p] | -11.7% |

What value of measured 5+ nucleoli phenotype percent effect is listed for UGGAGUCCAGGAAUCUGCAUUUU [hsa-miR-1289] ?
-51.8%

What value of measured 5+ nucleoli phenotype percent effect is listed for AUGGUCACCUCCGGGACU [hsa-miR-5587-5p] ?
41.6%

What value of measured 5+ nucleoli phenotype percent effect is listed for UGUGAUAUCGUGCUUCCUGGGA [hsa-miR-3689f] ?
17.5%

What value of measured 5+ nucleoli phenotype percent effect is listed for AGAGUUAACUCAAAAUGGACUA [hsa-miR-4424] ?
6.94%

What value of measured 5+ nucleoli phenotype percent effect is listed for AACUGGAUCAAUUAUAGGAGUG [hsa-miR-1243] ?
53.3%

What value of measured 5+ nucleoli phenotype percent effect is listed for UGGAAAAAACUGGUGUGUGCUU [hsa-miR-3148] ?
-1.39%

What value of measured 5+ nucleoli phenotype percent effect is listed for AGUGCCUGAGGGAGUAAGAG [hsa-miR-550a-3-5p] ?
-17.5%

---

Recorded measurements of 5+ nucleoli phenotype percent effect, one per entry
- Tested on: MCF10A
- TEST PROTOCOL: 5+ nucleoli phenotype percent effect (relative to siNT 0% and siKIF11 100%); higher = more cells with five or more nucleoli
- EXPERIMENTAL CONTEXT: 20 nM; 72 h
Enter your answer as a number in %; do not include the unit.

| RECORD SEQUENCE | OUTPUT UNIT | 5+ nucleoli phenotype percent effect |
| --- | --- | --- |
| CAAAGUGCUUACAGUGCAGGUAG [hsa-miR-17-5p] | % | 27.3 |
| UUACAGGCGUGAACCACCGCG [hsa-miR-5095] | % | -7.36 |
| CAACUAGACUGUGAGCUUCUAG [hsa-miR-708-3p] | % | 46.1 |

What value of measured 5+ nucleoli phenotype percent effect is listed for UUCACAUUGUGCUACUGUCUGC [hsa-miR-130a-5p] ?
19

What value of measured 5+ nucleoli phenotype percent effect is listed for GUUUGGACAUAGUGUGGCUGG [hsa-miR-7850-5p] ?
49.1

What value of measured 5+ nucleoli phenotype percent effect is listed for UAAAGUAAAUAUGCACCAAAA [hsa-miR-559] ?
24

What value of measured 5+ nucleoli phenotype percent effect is listed for CAGUGUUCAGAGAUGGA [hsa-miR-4255] ?
68.6

What value of measured 5+ nucleoli phenotype percent effect is listed for CCUGAGACCCUAGUUCCAC [hsa-miR-4329] ?
1.67
